Attribution: patent US20230131899A1

Molecular target: E. coli CsgA (Escherichia coli, UniProt P28307)
Construct: made in house; host or cells: E. coli NEB 3016 slyD::kan, pET11d
Sequence (P28307 23-151): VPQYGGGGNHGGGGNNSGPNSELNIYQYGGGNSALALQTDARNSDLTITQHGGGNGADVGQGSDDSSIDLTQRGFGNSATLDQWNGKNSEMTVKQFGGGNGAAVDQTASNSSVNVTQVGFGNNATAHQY
Assay: In vitro ThioflavinT assay of CsgA aggregation (CsgA ThT Assay)
Type: biochemical
Details: read-out: CsgA ThT Assay (10 μM CsgA) % Control AUC at 1005 minutes, 25 μM, mean AUC as % of DMSO control; CsgA 10 μM, black plates; compound 25 μM; 1005 minutes
Protocol: In vitro ThioflavinT assay to determine effects of compounds on CsgA aggregation. […] Protein concentration was assessed by the NanoDrop technique (Thermo Scientific), as is familiar to one skilled in the art. […] During the assay, plates were shaken initially for 5 seconds and subsequently for 3 seconds prior to fluorescent readings. Readings were performed every 15 minutes for up to 1005 minutes. The effect of compounds on CsgA aggregation in the assay was determined with data from 0-17 hours. […]
parameter measured: remaining activity at 25 µM (%)
Give just the number in %; leave the unit off.

Q: Look up and report measured remaining activity at 25 µM for this entry: CCCCCN1CC(C(=O)O)n2c(c(-c3cccc(C(F)(F)F)c3)c(Cc3cccc4ccccc34)c(N)c2=O)S1(=O)=O (stereo not drawn)
A: 51

Q: Read off the recorded remaining activity at 25 µM for O=C(O)C1CSc2c(-c3cccc(C(F)(F)F)c3)c(Cc3cccc4ccccc34)cc(=S)n21 (stereo not drawn)
A: 44

Q: Quote remaining activity at 25 µM reported for O=C(O)[C@H]1CS(=O)(=O)c2c(-c3cccc(C(F)(F)F)c3)c(Cc3cccc4ccccc34)cc(=O)n21 (single isomer, unassigned) [Compound 010b] please.
A: 85

Q: Retrieve remaining activity at 25 µM measured for O=C(O)C1CN(CCO)S(=O)(=O)c2c(-c3cccc(C(F)(F)F)c3)c(Cc3cccc4ccccc34)cc(=O)n21 (stereo not drawn) and print it.
A: 57

Q: Name the recorded remaining activity at 25 µM of the item O=C(O)C1CN(CCCCO)S(=O)(=O)c2c(-c3cccc(C(F)(F)F)c3)c(Cc3cccc4ccccc34)c(NC3CCCC3)c(=O)n21 (stereo not drawn) in your answer.
A: 32

Q: Dear colleague, please send me the reported remaining activity at 25 µM for O=C(O)C1CSc2c(-c3cccc(C(F)(F)F)c3)c(Cc3cccc4ccccc34)cc(=O)n21 (racemic) [Compound 011] when you can.
A: 63
